Data credit: the RNAGym collection of RNA variant scans (doi:10.7554/elife.90254)

B1: OR4K15 (parent)
chain: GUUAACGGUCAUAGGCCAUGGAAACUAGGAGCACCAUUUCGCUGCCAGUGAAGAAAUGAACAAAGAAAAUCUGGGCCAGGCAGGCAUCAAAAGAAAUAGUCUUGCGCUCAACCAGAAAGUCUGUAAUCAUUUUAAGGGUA

- Variants of: B1
- assayName: self-cleavage, relative activity (ratio to wild type); higher = more cleavage; in vitro, sequencing; the parent is a self-cleaving ribozyme
Please use 1 (yes) whenever self-cleavage is not below 0.8, and 0 (no) whenever it is.

GUUAACGGUCAUAGGCCAUGGAAACUAGGAGCACCAUCUCGCUGCCAGUGAAGAAAUGAACAAAGAAAAUCUGGGCCAGGCAGGCAUCAAAAGAAAUAGUCUUGCGCUCAACCAGAAAGUCUGUAAUCAUUUAAAGGGUA | 1 (yes)
GUUAACGGUCAUAGGCCAUGGAAACUAGGAGCACCAUCUCGCUGCCAGUGAAGAAAUGAACAAAGAAAAUCUGGGCCAGGCAGGCAUCAAAAGAAAUAGUCUUGCGCUCAACCAGAAAGUCUGUAACCAUUUUAAGGGUA | 0 (no)
GUUAACGGUCAUAGGCCAUGGAAACUAGGAGCACCAUUUCACUGCCAGUGAAGAAAUGAACAAAGAAAAUCUGGGCCAGGCAGGCAUCAAAAGAAAUAGUCUUGCGCUCAACCGGAAAGUCUGUAAUCAUUUUAAGGGUA | 0 (no)
GUUAACGGUCAUAGGCCAAGGAAACUAGGAGCACCAUUUCGCUGCCAGUGAAGAAAUGAACAAAGAAAAUCUGGGCCAGGCAGGCAUCAAAAGGAAUAGUCUUGCGCUCAACCAGAAAGUCUGUAAUCAUUUUAAGGGUA | 1 (yes)
GUUAACGGUCAUAGGCCAUGGAAACUAGGAGUACCAUUUCGCUGCCAGUGAAGAAAUGAACAAAGAAAAUCUGGGCCAGGCAGGCAUCAAAAGAAAUAGUCCUGCGCUCAACCAGAAAGUCUGUAAUCAUUUUAAGGGUA | 1 (yes)
GUUAACGGUCAUAGGCCAUGGAAACUAGGAGCACCAUUUCGCUGCCGGUGAAGAAAUGAACAAAGAAAAUCUGGGCCAGGCAGGCAUCAAAAGAAAAAGUCUUGCGCUCAACCAGAAAGUCUGUAAUCAUUUUAAGGGUA | 1 (yes)
GUUAACGGUCAUAGGCCAUGGAAACUAGGAGCACUAUUUCGCUGCCAGUGAAGAAAUGAACAAAGAAAAUCUGGGCCAGGCAGGCAUCAAAAGAAAUAGUCUUGCGCUCAACCAGAAAGUCUGUAAUCAUCUUAAGGGUA | 0 (no)
GUCAACGGUCAUAGGCCAUGGAAACUAGGAGCACCAUUUCGCUGCCAGUGAAGAAAUGAACAAAGAAAAUCUGGGCCAGGCAGGCAUCAAAAGAAAUAGUCAUGCGCUCAACCAGAAAGUCUGUAAUCAUUUUAAGGGUA | 0 (no)
GUUAACGGUCAUAGGCCAUGGAAACUAGGAGCACCAUUUCGCUGCCAGUGGAGAAAUGAACAAAGAAAAUCUGGGCCAGGCAGGCAUCAAAAGAAAUAGUCUUGCGCUCAACCAGAAAGUCAGUAAUCAUUUUAAGGGUA | 1 (yes)
GUUAACGGUCAUAGGCCAUGGAAACUAGGAGCACCAUUUCGCUUCCAGUGAUGAAAUGAACAAAGAAAAUCUGGGCCAGGCAGGCAUCAAAAGAAAUAGUCUUGCGCUCAACCAGAAAGUCUGUAAUCAUUUUAAGGGUA | 0 (no)

Request: Evaluate GUUACCGGUCAUAGGCCAUGGAAACUAGGAGCACCAUUUCGCUGCCAGUGAAGAAAUGAACAAAGAAAAUCUGGGCCAGGCAGGCAUCAAAAGAAAUAGUCUCGCGCUCAACCAGAAAGUCUGUAAUCAUUUUAAGGGUA : self-cleavage at minimum 0.8?
Result: 1 (yes)

Request: Evaluate GUUAACGGUCAUAGGCCAUGGAAACUAGGAGUACCAUUUCGCUGCCAGUGAAGAAAUGAACAAAGAAAAUCUGGGCCAGGCAGGCAUCAAAAGAAAUAGUCUUGCGCUCAGCCAGAAAGUCUGUAAUCAUUUUAAGGGUA : self-cleavage at minimum 0.8?
Result: 0 (no)

Request: Evaluate GUUAACGGUCAUAGGCCCUGGAAACUAGGAGCACCAUUUCGCUGCCAGUGAAGAAAUGAACAAAGAAAAUCUGGGCCAGGCAGGCAUCAAAAGAAAUAGUCUUGCGCUCAACCAGAAAGUCUGUAAUCAUUUUAAGGGUA : self-cleavage at minimum 0.8?
Result: 1 (yes)

Request: Evaluate GUUAACGGUCAUAGGCCAUGGAAACUAGGAGCACCAUUUCGCUGCCAGUGAAGAAAUGAACAAAGAAAAUCUGGGCCAGGCAGGCACCAAAAGAAUUAGUCUUGCGCUCAACCAGAAAGUCUGUAAUCAUUUUAAGGGUA : self-cleavage at minimum 0.8?
Result: 1 (yes)

Request: Evaluate GUUAACGGCCAUAGGCCUUGGAAACUAGGAGCACCAUUUCGCUGCCAGUGAAGAAAUGAACAAAGAAAAUCUGGGCCAGGCAGGCAUCAAAAGAAAUAGUCUUGCGCUCAACCAGAAAGUCUGUAAUCAUUUUAAGGGUA : self-cleavage at minimum 0.8?
Result: 1 (yes)

Request: Evaluate GUUAACGGUCAUAGGCCAUGGAAACUAGGAGCACCAUUUCGCUGCCAGUGAAGAAAUGAACAAAGCAAAUCUGGGCCAGGCAGGCAUCAAAAGAAAUAGUCUUGCGCUCAACCAGAAAGUCUGUAACCAUUUUAAGGGUA : self-cleavage at minimum 0.8?
Result: 0 (no)

Request: Evaluate GUUAACGGUCAUAGGCCAUGGAAACUAGGAGCACCAUUUCGCUGCCAGUGAAGAAAUAAACAAAGAAAAUCUGGGCCAGGCAGGCAUCAAAAGAAAUAGUCUUGCGCUCAACCAGAGAGUCUGUAAUCAUUUUAAGGGUA : self-cleavage at minimum 0.8?
Result: 1 (yes)

Request: Evaluate GUUAACGGUCAUAGGCCAUGGAAACUAGGAGCACCAUUUCGCUGCCAGUGAAGAAAUGAACAAAGAAAAUCUGGGCCAGGCAGGCAUCAUAAGAAAUAGUCUUGCACUCAACCAGAAAGUCUGUAAUCAUUUUAAGGGUA : self-cleavage at minimum 0.8?
Result: 0 (no)

Request: Evaluate GUUAACGGUCAUAGGCCAUGGAAACUAGGAGCACCAUUUCGCUGCCAGUGAAGAAAUGAACAAAGAAAAUCUGGGCCAGGCAUGCAUCAAAAGAAAUAGUCUUGCGCUCAACCAGAAAGUCUGUAACCAUUUUAAGGGUA : self-cleavage at minimum 0.8?
Result: 0 (no)

Request: Evaluate GUUAACGGUCAUAGGCCAUGGAAACUAGGAGCACAAUUUCGCUGCCAGUGAAGAAAUGAACAAAGAAAAUCUGGGCCAGGCAGGCAUCAAAAGAAAUAGUCUUGCGCUCAACCAGGAAGUCUGUAAUCAUUUUAAGGGUA : self-cleavage at minimum 0.8?
Result: 1 (yes)

Request: Evaluate GUUAACGGUCAUAGGCCAUGGGAACUAGGAGCACCAUUUCGCUGCCAGUGAAGAAAUGAACAAAGAAAAUCUGGGCCAGGCAGGCAUCAAAAGAAAUAGUCUUGCGCUCAACCAGAAAGUCUGUAAUCAUUUUUAGGGUA : self-cleavage at minimum 0.8?
Result: 1 (yes)

Request: Evaluate GUUAACGGUCAUAGGCCAUGGAGACUAGGAGCACCAUUUCGCUGCCAGUGAAGAAAUGAACGAAGAAAAUCUGGGCCAGGCAGGCAUCAAAAGAAAUAGUCUUGCGCUCAACCAGAAAGUCUGUAAUCAUUUUAAGGGUA : self-cleavage at minimum 0.8?
Result: 1 (yes)
